Target: Streptokinase A (Streptococcus pyogenes serotype M1)
Sequence (P10520 whole entry): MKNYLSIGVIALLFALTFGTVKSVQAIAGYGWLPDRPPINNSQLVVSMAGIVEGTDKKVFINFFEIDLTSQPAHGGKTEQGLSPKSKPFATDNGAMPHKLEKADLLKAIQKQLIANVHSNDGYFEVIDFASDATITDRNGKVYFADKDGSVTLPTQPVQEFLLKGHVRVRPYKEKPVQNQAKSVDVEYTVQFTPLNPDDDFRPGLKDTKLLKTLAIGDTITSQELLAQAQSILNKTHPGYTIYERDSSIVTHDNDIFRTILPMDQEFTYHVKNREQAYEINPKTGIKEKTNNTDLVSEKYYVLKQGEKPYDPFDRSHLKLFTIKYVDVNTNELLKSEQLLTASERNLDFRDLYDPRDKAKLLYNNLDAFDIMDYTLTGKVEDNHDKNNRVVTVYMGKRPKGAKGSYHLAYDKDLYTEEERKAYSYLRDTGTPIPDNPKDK
Test: S. pyogenes streptokinase expression inhibitors, potency, dose response, plasminogen activation absorbance, OD405 (AID 1914);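 also: secreted streptokinase activity via plasminogen activation per viability signal from cell pellet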
Type: functional, Streptococcus pyogenes M1 GAS
Calls of active or inactive are those of the source.
QUANTITY KIND: EC50

Answered examples (5):
CCOC(=O)C1=C(N)Oc2ccc3ccccc3c2C1c1ccc(O)cc1 (stereo not drawn) : 11.5 µM (active)
Oc1cccc2ccc(/C=C/c3c(F)cccc3Cl)nc12 : > 150 µM (not active)
O=C(c1cc(-c2ccccc2)n[nH]1)N1CCc2c([nH]c3ccccc23)C1c1ccccn1 (stereo not drawn) : 26.3 µM (active)
COc1ccc(OCC(=O)NNC(=S)NC(=O)C2CC2)cc1 : > 150 µM (not active)
CC/C(=N\NC(=S)Nc1cc(C)ccc1C)c1ccc(OC(F)F)cc1 : > 150 µM (not active)

Entry Cc1nnc(O)c2c(NC(=O)CSc3nnnn3-c3ccccc3)oc(C)c12 — recorded EC50 = > 150 µM (not active)

Entry Cc1ccccc1NC(=O)C(=O)NC(C)CCc1ccccc1 (stereo not drawn) — recorded EC50 = > 150 µM (not active)

Entry Cc1nn(CC(O)CN2c3ccccc3Sc3ccccc32)c(C)c1Br (stereo not drawn) — recorded EC50 = 8 µM (active)

* * *

biological target: Voltage-gated inwardly rectifying potassium channel KCNH2 (Homo sapiens, UniProt Q12809); test: hERG protection from proarrhythmic block, potency, dose response, cell-based, thallium flux (AID 2121); type: ADME
Sequence (Q12809 whole entry): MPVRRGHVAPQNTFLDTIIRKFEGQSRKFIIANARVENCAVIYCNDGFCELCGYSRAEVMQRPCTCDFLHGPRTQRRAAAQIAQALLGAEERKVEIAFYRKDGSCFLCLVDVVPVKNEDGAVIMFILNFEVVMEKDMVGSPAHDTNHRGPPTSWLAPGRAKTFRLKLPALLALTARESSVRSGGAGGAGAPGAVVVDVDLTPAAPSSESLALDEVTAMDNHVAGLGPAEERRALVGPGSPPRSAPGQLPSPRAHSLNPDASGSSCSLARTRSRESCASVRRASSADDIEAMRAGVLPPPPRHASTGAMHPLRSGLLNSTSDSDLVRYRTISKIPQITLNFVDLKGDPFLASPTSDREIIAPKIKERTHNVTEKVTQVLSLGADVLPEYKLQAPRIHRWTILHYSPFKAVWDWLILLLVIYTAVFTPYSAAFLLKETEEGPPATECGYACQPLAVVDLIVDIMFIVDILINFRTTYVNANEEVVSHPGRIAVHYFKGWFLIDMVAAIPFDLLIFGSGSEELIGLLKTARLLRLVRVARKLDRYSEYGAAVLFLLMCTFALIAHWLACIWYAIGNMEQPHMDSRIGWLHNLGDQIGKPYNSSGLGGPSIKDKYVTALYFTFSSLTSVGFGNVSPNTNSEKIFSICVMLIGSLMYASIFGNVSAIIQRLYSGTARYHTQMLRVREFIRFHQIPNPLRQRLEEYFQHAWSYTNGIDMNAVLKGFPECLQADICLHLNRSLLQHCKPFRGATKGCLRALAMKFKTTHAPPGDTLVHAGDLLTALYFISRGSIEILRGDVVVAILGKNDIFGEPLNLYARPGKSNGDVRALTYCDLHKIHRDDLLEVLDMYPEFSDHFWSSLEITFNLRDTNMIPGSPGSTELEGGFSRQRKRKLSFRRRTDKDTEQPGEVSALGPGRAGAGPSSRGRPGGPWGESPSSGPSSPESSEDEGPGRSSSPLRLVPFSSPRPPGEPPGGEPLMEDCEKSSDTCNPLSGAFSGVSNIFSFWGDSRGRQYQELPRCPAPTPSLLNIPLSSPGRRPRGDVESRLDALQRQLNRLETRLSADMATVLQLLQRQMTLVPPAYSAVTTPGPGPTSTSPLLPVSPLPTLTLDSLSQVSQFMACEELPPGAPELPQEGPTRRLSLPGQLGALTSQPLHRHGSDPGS
Calls of active or inactive are those of the source.
QUANTITY KIND: EC50

Answered examples (2):
O=C1N2CCSC2=NC1(NS(=O)(=O)c1ccccc1)C(F)(F)F (centres undefined) : 2270 nM (active)
Cc1cccc(NC(=S)NC(=O)c2cc(-c3ccccc3)nc3ccccc23)c1 : 530 nM (active)

Entry NC(=O)c1cccnc1Nc1cccc([N+](=O)[O-])c1 — recorded EC50 = 2980 nM (active)

Entry CN(C(=S)NC(=O)c1ccc(F)cc1)C1CCCCC1 — recorded EC50 = 8790 nM (active)

* * *

test system: Streptococcus sp. 'group A'; experiment: growth inhibition of control SK(-) GAS strain, dose response, counter-screen for streptokinase expression inhibitor project, luminescence, kanamycin, BacTiterGlo, confirmation (AID 1900); type: functional, organism-based
Activity calls are given as the source filed them.
QUANTITY KIND: EC50

Answered examples (4):
O=[N+]([O-])/C=C/c1c(OCc2ccccc2)ccc2ccccc12 : 1.49 µM (active)
CC(C)CN(C(=O)COc1ccc(-c2nnco2)cc1)C1CCS(=O)(=O)C1 (configuration not stated) : > 150 µM (not active)
CC1(C)N=C(N)N=C(N)N1c1ccc(Oc2ccc(Cl)cc2)c(Cl)c1 : < 0.06 µM (active)
CCOC(=O)C1=C(N)Oc2ccc3ccccc3c2C1c1ccc(O)cc1 (configuration not stated) : 8.94 µM (active)

Entry Cc1cccc(C)c1OCC(=O)Nc1ccccc1N1CCCCC1 — recorded EC50 = 3.36 µM (active)

Entry O=C(NCc1nc(-c2ccc(C(F)(F)F)cc2)no1)Nc1cc(Cl)cc(Cl)c1 — recorded EC50 = 2.88 µM (active)

Entry O=C(c1cc(-c2ccccc2)[nH]n1)N1CCc2c([nH]c3ccccc23)C1c1ccccn1 (configuration not stated) — recorded EC50 = 10.3 µM (active)

* * *

// reported IC50 per item
Target: Corticotropin-releasing factor receptor 2/Corticotropin-releasing factor-binding protein (Homo sapiens, UniProt P24387+Q13324)
Sequence (Q13324 whole entry): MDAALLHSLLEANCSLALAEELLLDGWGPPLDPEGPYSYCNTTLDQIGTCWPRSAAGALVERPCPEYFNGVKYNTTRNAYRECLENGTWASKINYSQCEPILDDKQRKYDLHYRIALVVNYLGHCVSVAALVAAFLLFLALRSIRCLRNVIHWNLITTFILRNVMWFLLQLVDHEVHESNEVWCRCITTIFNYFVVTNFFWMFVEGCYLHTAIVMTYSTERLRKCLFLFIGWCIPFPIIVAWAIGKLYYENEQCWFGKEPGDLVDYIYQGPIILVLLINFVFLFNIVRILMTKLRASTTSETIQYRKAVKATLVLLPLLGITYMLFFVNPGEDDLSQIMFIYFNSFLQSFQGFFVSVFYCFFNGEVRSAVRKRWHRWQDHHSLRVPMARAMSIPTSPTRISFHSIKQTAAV
Sequence (P24387 whole entry): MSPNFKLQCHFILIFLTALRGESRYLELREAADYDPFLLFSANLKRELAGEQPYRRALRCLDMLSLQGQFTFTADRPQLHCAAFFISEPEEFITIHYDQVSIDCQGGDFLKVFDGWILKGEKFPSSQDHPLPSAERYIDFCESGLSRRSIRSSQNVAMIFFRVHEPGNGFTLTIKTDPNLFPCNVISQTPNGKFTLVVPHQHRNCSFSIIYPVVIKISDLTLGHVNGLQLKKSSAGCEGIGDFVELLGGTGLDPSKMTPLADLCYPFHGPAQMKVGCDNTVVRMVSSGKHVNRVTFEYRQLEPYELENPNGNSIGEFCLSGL
Assay: Dose Response confirmation of uHTS hits for small molecule antagonists of the CRF-binding protein and CRF-R2 receptor complex.
Format: functional
Details: read-out: IC50_Mean
Calls of active or inactive are those of the source.

CC(C)Sc1snnc1-c1ccccc1 : < 0.368 µM (active)
Cc1ccc(-n2nnnc2SCC(=O)Nc2cccnc2Cl)cc1 : > 47.1 µM (inactive)
Cc1ccc(N(Cc2ccc([N+](=O)[O-])cc2)C(=O)c2ccco2)cc1 : > 47.1 µM (inactive)
O=C(N/N=C/c1ccccc1Cl)C1CC1 : > 47.1 µM (inactive)
COc1ccc(NC2CCCN(C(=O)c3cccc(C)n3)C2)cc1OC (stereo unspecified) : > 47.1 µM (inactive)

As a next step, examine the compound that follows.
Entry O=C(NNc1ncnc2c1cnn2-c1ccc(F)cc1)c1ccco1 — recorded IC50 = < 0.368 µM (active)

* * *

molecular target: Cytochrome P450 3A4 (Homo sapiens, UniProt P08684); conditions: Potency;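 also: confirmatory qHTS run detecting inhibitors and substrates of CYP3A4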
Sequence (P08684 whole entry): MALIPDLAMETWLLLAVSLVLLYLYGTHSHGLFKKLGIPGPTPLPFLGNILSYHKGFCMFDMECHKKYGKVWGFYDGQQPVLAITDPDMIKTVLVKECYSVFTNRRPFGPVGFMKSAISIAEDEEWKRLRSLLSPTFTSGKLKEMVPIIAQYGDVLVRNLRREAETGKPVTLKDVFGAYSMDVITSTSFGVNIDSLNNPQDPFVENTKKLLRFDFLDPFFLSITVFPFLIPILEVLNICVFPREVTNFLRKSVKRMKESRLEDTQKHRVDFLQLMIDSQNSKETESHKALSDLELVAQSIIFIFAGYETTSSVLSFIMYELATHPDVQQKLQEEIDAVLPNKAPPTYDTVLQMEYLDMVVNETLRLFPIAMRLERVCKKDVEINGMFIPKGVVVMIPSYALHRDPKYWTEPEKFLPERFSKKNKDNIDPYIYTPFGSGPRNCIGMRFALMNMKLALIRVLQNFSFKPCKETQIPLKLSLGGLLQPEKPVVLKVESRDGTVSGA
QUANTITY KIND: AC50

Entry CC(C)(O)C(=O)Nc1ccc([N+](=O)[O-])c(C(F)(F)F)c1 [HYDROXYFLUTAMIDE] — recorded AC50 = 25.1 µM (inconclusive)

* * *

assay: cells; assay type: functional
Active and inactive are the calls of the source.
QUANTITY KIND: IC50

CCCCOC(=O)Cn1c(-c2ccccc2)nc2ccccc2c1=O : 12.7 µM (active)
O=C(OCc1cccc(F)c1)c1ccc2c(=O)n3c(nc2c1)CCC3 : 12.1 µM (active)
CC(=O)Nc1nc2ccccc2n1Cc1ccc(Cl)cc1 : 1.02 µM (active)
CS(=O)(=O)Cc1nc2ccccc2oc1=O : 2.93 µM (active)

As a next step, examine the molecule that follows.
Entry O=C(CNC(=O)c1ccco1)OCc1ccc(C(=O)Oc2ccccc2)cc1 — recorded IC50 = 11.7 µM (active)

* * *

biological target: Peroxisome proliferator-activated receptor gamma/Nuclear receptor coactivator 3 (Homo sapiens, UniProt P37231); assay: TR-FRET dose response biochemical High Throughput Screening assay for agonists of the steroid receptor coactivator 3 (SRC-3) recruitment by the peroxisome proliferator-activated receptor gamma (PPAR gamma): non-selective agonists. [Related pubchem assays: 1301 (Confirmation screen.), 1048 (Primary screen.)]; assay type: functional
Sequence (P37231 whole entry): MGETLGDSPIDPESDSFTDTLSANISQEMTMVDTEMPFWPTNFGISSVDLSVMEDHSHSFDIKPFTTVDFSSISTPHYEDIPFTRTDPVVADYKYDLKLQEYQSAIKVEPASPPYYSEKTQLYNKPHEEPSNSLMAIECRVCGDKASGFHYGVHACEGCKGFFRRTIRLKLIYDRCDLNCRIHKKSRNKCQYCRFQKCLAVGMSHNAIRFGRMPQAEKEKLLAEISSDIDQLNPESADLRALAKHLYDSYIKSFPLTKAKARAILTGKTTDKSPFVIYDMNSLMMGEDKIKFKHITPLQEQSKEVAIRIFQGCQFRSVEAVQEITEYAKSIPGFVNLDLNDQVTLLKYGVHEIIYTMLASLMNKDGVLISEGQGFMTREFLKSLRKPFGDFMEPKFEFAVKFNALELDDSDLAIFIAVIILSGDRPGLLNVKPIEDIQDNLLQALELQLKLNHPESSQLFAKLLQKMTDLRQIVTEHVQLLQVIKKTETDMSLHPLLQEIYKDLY
Sequence (Q9Y6Q9 whole entry, further chain): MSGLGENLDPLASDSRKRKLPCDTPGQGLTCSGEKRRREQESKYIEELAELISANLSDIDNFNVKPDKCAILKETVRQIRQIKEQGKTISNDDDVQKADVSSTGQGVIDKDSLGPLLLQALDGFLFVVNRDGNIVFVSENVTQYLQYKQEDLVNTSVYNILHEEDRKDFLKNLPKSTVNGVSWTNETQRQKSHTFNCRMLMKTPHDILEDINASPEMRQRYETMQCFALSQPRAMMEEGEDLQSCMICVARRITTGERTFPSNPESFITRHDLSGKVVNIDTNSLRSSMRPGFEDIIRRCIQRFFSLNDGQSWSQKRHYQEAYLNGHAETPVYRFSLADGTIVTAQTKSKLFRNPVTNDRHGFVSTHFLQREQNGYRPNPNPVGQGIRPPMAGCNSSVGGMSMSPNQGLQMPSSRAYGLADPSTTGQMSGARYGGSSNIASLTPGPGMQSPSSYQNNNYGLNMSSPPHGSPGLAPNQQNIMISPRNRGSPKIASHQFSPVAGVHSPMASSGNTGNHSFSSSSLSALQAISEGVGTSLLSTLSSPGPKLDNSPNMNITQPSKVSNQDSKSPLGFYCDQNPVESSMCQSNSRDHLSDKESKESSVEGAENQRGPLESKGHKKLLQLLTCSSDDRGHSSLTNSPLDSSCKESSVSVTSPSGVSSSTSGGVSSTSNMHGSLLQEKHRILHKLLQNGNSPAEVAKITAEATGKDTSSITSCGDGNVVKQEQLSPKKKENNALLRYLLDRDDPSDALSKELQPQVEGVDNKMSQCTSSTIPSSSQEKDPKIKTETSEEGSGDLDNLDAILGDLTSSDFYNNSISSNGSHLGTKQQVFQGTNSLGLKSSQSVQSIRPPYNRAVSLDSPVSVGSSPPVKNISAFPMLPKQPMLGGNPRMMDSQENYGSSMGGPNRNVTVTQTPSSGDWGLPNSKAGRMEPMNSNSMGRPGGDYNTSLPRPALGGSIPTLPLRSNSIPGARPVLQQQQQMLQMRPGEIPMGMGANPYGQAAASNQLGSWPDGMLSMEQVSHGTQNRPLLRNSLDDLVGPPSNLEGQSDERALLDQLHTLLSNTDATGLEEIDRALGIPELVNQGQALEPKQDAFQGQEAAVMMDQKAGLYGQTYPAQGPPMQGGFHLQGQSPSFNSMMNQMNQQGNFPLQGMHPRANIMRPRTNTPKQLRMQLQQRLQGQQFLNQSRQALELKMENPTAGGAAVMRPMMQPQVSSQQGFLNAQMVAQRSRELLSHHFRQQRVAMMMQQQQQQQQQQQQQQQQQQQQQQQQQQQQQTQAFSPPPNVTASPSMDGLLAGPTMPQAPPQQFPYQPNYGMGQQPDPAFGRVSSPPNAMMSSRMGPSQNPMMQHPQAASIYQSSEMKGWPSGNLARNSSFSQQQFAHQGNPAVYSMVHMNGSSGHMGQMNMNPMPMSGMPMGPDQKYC
QUANTITY KIND: EC50

Answered examples (4):
Sc1nnc(-c2cccc(Br)c2)o1 : > 79.4 µM (not active)
CC(Sc1nc(N2CCCCC2)c2c(c1C#N)CCCC2)C(=O)O (stereo not given) : > 79.4 µM (not active)
COC(=O)c1sc(N2C(=O)C(O)=C(C(=O)c3ccc(C)o3)C2c2ccc(F)cc2)nc1C (stereo not given) : > 79.4 µM (not active)
COc1ccc(Br)cc1-c1nc(CCl)cs1 : > 79.4 µM (not active)

As a next step, examine the molecule that follows.
Entry Cc1cccc(-n2c(S)nnc2-c2ccco2)c1 — recorded EC50 = > 79.4 µM (not active)
